Tested on: HOP-62
stated-conditions: HOP-62, Non-Small Cell Lung
This listing pairs compounds with measured Total growth inhibition (TGI).
Note: unit µM is implicit; provide only the numeric part.

Some entries whose results are on file:
C=C1CCC2C3(C)COC(c4cn(-c5ccccc5)nc4-c4ccc(F)cc4)OC3CCC2(C)C1CC=C1C(=O)OCC1O (stereo not shown): 3.36
C=C1CCC2C3(C)COC(c4cn(-c5ccccc5)nc4-c4cccc(F)c4)OC3CCC2(C)C1CC=C1C(=O)OCC1O (stereo not shown): 3.86
C=C1CCC2C3(C)COC(c4cn(-c5ccccc5)nc4-c4ccccc4)OC3CCC2(C)C1CC=C1C(=O)OCC1O (stereo not shown): 3.84
C=C1CCC2C3(C)COC(c4cn(-c5ccccc5)nc4-c4cccc([N+](=O)[O-])c4)OC3CCC2(C)C1CC=C1C(=O)OCC1O (stereo not shown): 12.4
C=C1CCC2C3(C)COC(c4cn(-c5ccccc5)nc4-c4cccc(Br)c4)OC3CCC2(C)C1CC=C1C(=O)OCC1O (stereo not shown): 4.94
C=C1CCC2C3(C)COC(c4cn(-c5ccccc5)nc4-c4ccc(C)cc4)OC3CCC2(C)C1CC=C1C(=O)OCC1O (stereo not shown): 4.44

Short answer on HOP-62 for C=C1CCC2C3(C)COC(c4cn(-c5ccccc5)nc4-c4cccc(Cl)c4)OC3CCC2(C)C1CC=C1C(=O)OCC1O (stereo not shown) , Total growth inhibition (TGI): 4.29
